Source listed as patent US20210047278A1.

# targetOfAssay: FBW7^ARG (RLFBW7) alone (Homo sapiens, UniProt Q969H0, R505L)
# Construct: GST (TEV site and flexible linker) (N, cleaved yes); made in house; host or cells: SF9 insect cells (baculovirus)
# measurementDescription: Counterscreen 1 ALPHAscreen with FBW7^ARG alone (CSRUN1/DCSRUN1)
# Assay type: binding
# conditionNotes: dose-response counterscreen, read-out: RLFBW7 ACT DCSRUN1 Final EC50
pEC50: −log10 of the molar value.
Can you tell me pEC50 for the items I'm about to list?

// pEC50 value for O=C(NCc1ccc(C(=O)NCCc2ccccn2)cc1)Nc1ccc(-c2cn[nH]c2)cc1 : 4.55

// pEC50 value for O=C(NCCCN1CCc2ccccc2C1)Nc1ccc(Br)cc1 : < 4.19

// pEC50 value for CC(C)c1ccc(Nc2nccn3c(-c4ccoc4)cnc23)cc1 : < 4.19

// pEC50 value for CC(=O)NCC(c1cccs1)S(=O)(=O)c1ccc(C)cc1 (stereo not drawn) : < 4.19

Required: pEC50, one value per compound below.
1. CCc1ccc(N2CC(C(=O)NCC(C)(C)CNC(=O)C3CC(=O)N(c4ccc(CC)cc4)C3)CC2=O)cc1 (stereo not drawn)
2. COc1ccccc1-c1ccc(=O)n(CC(=O)Nc2ccc(C(=O)N3CCCC3)cc2)n1
3. COc1cccc(/C=N/c2cnn(C)c2C(N)=O)c1O
4. CCN(CC)c1ccc2cc(-c3ccccn3)c(=O)oc2c1

1: < 4.39; 2: < 4.19; 3: < 4.19; 4: < 4.15

Required: pEC50, one value per compound below.
1. Fc1ccccc1CSc1nnnn1-c1ccccc1F
2. Cc1ccc2nc(SCC(=O)Nc3ncc(C)s3)c(C#N)cc2c1
3. CSc1ccccc1C(=O)Nc1nc2nc(C)cc(C)c2s1
4. CCSCCOC(=O)C1=C(C)NC2=C(C(=O)CCC2)C1c1ccc(Br)cc1 (stereo not drawn)
5. O=c1c2cnn(-c3ccccc3)c2nnn1Cc1cccnc1

1. < 4.14
2. < 4.19
3. 4.52
4. < 4.26
5. < 4.19

====

Can you tell me activation at 26.1 µM for the items I'm about to list?
# targetOfAssay: FBW7^ARG+pCycE (Homo sapiens, UniProt Q969H0, R505L)
# Construct: GST (TEV site and flexible linker) (N, cleaved yes); made in house; host or cells: SF9 insect cells (baculovirus)
# Sequence (Q969H0 64-707 R505L): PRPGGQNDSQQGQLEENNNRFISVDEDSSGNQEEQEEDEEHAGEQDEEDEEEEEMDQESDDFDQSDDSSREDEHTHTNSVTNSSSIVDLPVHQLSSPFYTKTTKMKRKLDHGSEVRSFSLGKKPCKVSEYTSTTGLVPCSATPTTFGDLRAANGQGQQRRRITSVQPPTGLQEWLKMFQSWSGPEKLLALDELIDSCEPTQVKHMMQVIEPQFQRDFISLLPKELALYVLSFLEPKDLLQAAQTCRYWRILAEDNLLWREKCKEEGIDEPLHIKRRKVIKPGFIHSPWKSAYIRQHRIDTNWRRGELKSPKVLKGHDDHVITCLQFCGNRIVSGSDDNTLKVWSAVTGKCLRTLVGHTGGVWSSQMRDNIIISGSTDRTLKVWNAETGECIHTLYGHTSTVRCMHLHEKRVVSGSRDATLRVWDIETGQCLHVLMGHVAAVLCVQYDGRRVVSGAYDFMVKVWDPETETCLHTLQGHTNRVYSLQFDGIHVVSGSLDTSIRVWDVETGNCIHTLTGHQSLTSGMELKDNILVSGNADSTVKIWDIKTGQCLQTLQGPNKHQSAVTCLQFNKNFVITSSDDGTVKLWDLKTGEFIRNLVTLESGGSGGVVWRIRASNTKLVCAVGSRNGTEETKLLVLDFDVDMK
# Sequence (P63208 2-163 partner): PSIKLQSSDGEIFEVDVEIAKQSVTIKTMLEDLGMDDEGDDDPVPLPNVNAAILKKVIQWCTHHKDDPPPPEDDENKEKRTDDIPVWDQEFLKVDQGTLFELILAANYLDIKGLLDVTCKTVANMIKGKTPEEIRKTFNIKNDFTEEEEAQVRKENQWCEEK
# measurementDescription: FBW7^ARG-cyclin E agonist ALPHAscreen (primary PRUN, confirmation CRUN1, dose-response DRUN)
# Type: binding
# conditionNotes: primary screen, 1536-well, 26.1 μM, FBW7^ARG + pCycE degron peptide; high control wt-FBW7+pCycE; read-out: FBW7 ACT PRUN % Response
Include the unit after the number when you answer.

// activation at 26.1 µM value for COCCOC(=O)C1=C(C)NC2=C(C(=O)CC(c3ccccc3)C2)C1c1ccc(OCc2ccccc2)cc1 (stereo not shown) : 3.41%

// activation at 26.1 µM value for Cc1ncn(-c2ccc(Nc3cc(-c4nocc4-c4ccccn4)ccn3)cc2)n1.O=C(O)C(F)(F)F : 2.76%

// activation at 26.1 µM value for CCC(C)OC(=O)C1=C(C)NC2=C(C(=O)CC(c3ccc(Cl)cc3)C2)C1c1cccc(Cl)c1 (stereo not shown) : 1.86%

Next:
// activation at 26.1 µM value for CC(C)[C@@H](CO)Nc1ccc2ncc(-c3cccc(Cl)c3)n2n1 : 2.03%

====

# targetOfAssay: FBW7^ARG+pCycE (Homo sapiens, UniProt Q969H0, R505L)
# Construct: GST (TEV site and flexible linker) (N, cleaved yes); made in house; host or cells: SF9 insect cells (baculovirus)
# measurementDescription: FBW7^ARG-cyclin E agonist ALPHAscreen (primary PRUN, confirmation CRUN1, dose-response DRUN)
# Format: binding
# conditionNotes: DRUN dose-response, raw curve fit; read-out: FBW7 ACT EC50 Curve Fit Raw, Molar
endpointLabel: pEC50
Give bare numbers, as −log10 of the molar value.

// pEC50 value for Cc1ccc(-c2cccc3cnc(Nc4ccc(-n5cnc(-c6ccccn6)n5)cc4)nc23)cn1.O=C(O)C(F)(F)F [SR-00000008492-1] : 5.40

// pEC50 value for Cc1nc(C(C)NC(=O)c2cc(COc3ccc(F)cc3F)on2)cs1 (centres unmarked) [SR-01000168282-1] : 5.64

// pEC50 value for CCN1C(=O)c2cccc3c(N4CCCC4)ccc(c23)C1=O [SR-01000221568-1] : 4.76

// pEC50 value for CCOC(=O)C1CCN(C(=O)Nc2ccc(NC(=O)C3CCN(C(=O)OCC)CC3)cc2)CC1 [SR-01000451467-1] : 5.02

Required: pEC50, one value per compound below.
1. COc1ccccc1N1C(=O)c2ccc(C(=O)Nc3cc([N+](=O)[O-])ccc3O)cc2C1=O [SR-01000236956-1]
2. CCCCCCCC(=O)Nc1ccc(C(=O)Nc2ccc(O)c(C(=O)O)c2)cc1 [SR-01000507444-1]

4.66
5.24

====

Can you tell me log10(EC50) for the items I'm about to list?
# targetOfAssay: FBW7^ARG+pCycE (Homo sapiens, UniProt Q969H0, R505L)
# Construct: GST (TEV site and flexible linker) (N, cleaved yes); made in house; host or cells: SF9 insect cells (baculovirus)
# measurementDescription: FBW7^ARG-cyclin E agonist ALPHAscreen (primary PRUN, confirmation CRUN1, dose-response DRUN)
# Format: binding
# conditionNotes: DRUN dose-response, raw curve fit; read-out: FBW7 ACT EC50 Curve Fit Raw, Molar
Reminder: these figures are log10 of reported EC50, in µM before transformation.

// log10(EC50) value for CC(C)(C)OC(=O)N/N=C\c1cccs1 : 0.15

// log10(EC50) value for COc1cccc(/C=N/c2ccc3[nH]ncc3c2)c1O : 1.32

// log10(EC50) value for COc1cc(-c2ccnc(N)n2)ccc1NC(=O)[C@H]1COc2ccccc2O1.O=C(O)C(F)(F)F : 1.27

Required: log10(EC50), one value per compound below.
1. CC(C)c1ccc(Nc2nccn3c(-c4ccoc4)cnc23)cc1
2. CCS(=O)(=O)NCC(c1cccs1)S(=O)(=O)c1ccc(C)cc1 (centres unmarked)
3. Cc1ncn(-c2ccc(Nc3cc(-c4nocc4-c4ccccn4)ccn3)cc2)n1.O=C(O)C(F)(F)F
4. CC1=C(C(=O)OCCc2ccccc2)C(c2ccc(Cl)cc2Cl)C2=C(CC(C)(C)CC2=O)N1 (centres unmarked)
5. COc1ccc(COC(=O)C2=C(C)NC3=C(C(=O)CC(C)(C)C3)C2c2ccccc2)cc1 (centres unmarked)

1.10
0.88
0.41
1.21
1.38

====

# targetOfAssay: FBW7^ARG+pCycE (Homo sapiens, UniProt Q969H0, R505L)
# Construct: GST (TEV site and flexible linker) (N, cleaved yes); made in house; host or cells: SF9 insect cells (baculovirus)
# measurementDescription: FBW7^ARG-cyclin E agonist ALPHAscreen (primary PRUN, confirmation CRUN1, dose-response DRUN)
# Assay type: binding
# conditionNotes: DRUN dose-response, triplicate, 10 point 3-fold dilution, max approx. 87 μM; read-out: FBW7 ACT Final EC50, Molar
# Source text: FBW7^ARG refers to a class of loss-of-function mutations of the of FBW7 ubiquitin ligase that target a key phosphate-binding arginine residue in the FBW7 substrate-binding domain. […] ALPHAscreen is a bead-based proximity assay wherein donor beads contain a photosensitizer, phthalocyanine, and acceptor beads contain thioxene, anthracene and rubrenein in sufficient quantities to generate a chemiluminescence/fluorescence reaction (FIG. 4A). […] 6. Read ALPHAscreen on Envision […]
pEC50: −log10 of the molar value.
Can you tell me pEC50 for the items I'm about to list?

Take a look at these entries with their results.
// pEC50 value for O=C(NCc1ccc(C(=O)NCCc2ccccn2)cc1)Nc1ccc(-c2cn[nH]c2)cc1 : < 4.19

// pEC50 value for CCC(C)OC(=O)C1=C(C)NC2=C(C(=O)CC(c3ccc(Cl)cc3)C2)C1c1cccc(Cl)c1 (centres unmarked) : < 4.34

// pEC50 value for CCS(=O)(=O)NCC(c1cccs1)S(=O)(=O)c1ccc(C)cc1 (centres unmarked) : < 4.18

// pEC50 value for Cc1ncn(-c2ccc(Nc3cc(-c4nocc4-c4ccccn4)ccn3)cc2)n1.O=C(O)C(F)(F)F : < 4.19

// pEC50 value for CC(C)[C@@H](CO)Nc1ccc2ncc(-c3cccc(Cl)c3)n2n1 : < 4.19

Required: pEC50, one value per compound below.
1. CCC(c1nnnn1CCC(C)C)N1CCN(C(=O)c2ccco2)CC1 (centres unmarked)
2. CCSc1nnc(C2CCN(CC(=O)Nc3cccc4ccccc34)CC2)n1C

1: < 4.19; 2: < 4.19

// pEC50 value for Fc1ccccc1CSc1nnnn1-c1ccccc1F : < 4.14
